Origin of measurements: ChEMBL document CHEMBL1201862

Hi there, I'd appreciate the recorded GI50 for every entry that follows.
tested on: M14; assay: NCI tumour cell line growth inhibition, 48 h
Calls of active or inactive are those of the source. No stated cut-off is given here; in the data, active = GI50 up to about 1.1 µM and inactive = higher.

Please review the following examples before continuing.
COMPOUND	RECORDED_METRIC	RESULT
CN1c2ccccc2N(C)C2C1N(C)c1ccccc1N2C (stereo not given)	GI50	18.2 µM (inactive)
CSc1nc2c(nc(C)c(=O)n2C2OCC(OC(C)=O)C(OC(C)=O)C2OC(C)=O)c(=O)[nH]1 (stereo not given)	GI50	> 100 µM (inactive)
COC(=O)[C@@H]1O[C@]12[C@@H](CO[Si](C)(C)C(C)(C)C)O[C@@H](n1cc(C)c(=O)[nH]c1=O)[C@@H]2O[Si](C)(C)C(C)(C)C	GI50	19.5 µM (inactive)
Cc1ccc(-c2c(N)[n+]([O-])c3ccccc3[n+]2[O-])cc1	GI50	12 µM (inactive)
COc1ccc(C2=Nn3c(C)nnc3S/C2=C\c2ccc(-c3ccc([N+](=O)[O-])cc3)o2)cc1	GI50	17.7 µM (inactive)

Report GI50 for each item below.
1. Cc1cc(=O)n2c3c(c4c(cc13)c(CO)cc(=O)n4C)OC2
2. COc1cc2c(c(OC)c1)C(C)=NC(C)C2 (stereo not given)
3. Cc1ccc(N2C=Nn3c(nc4sc5c(c4c3=O)CCCC5)C2)cc1
4. CCCCCCCCC(O)c1ccc(/C=C\C(O)CCCC(=O)O)s1 (stereo not given)
5. CCOP(=O)(/C=C\n1cc(C)c(=O)[nH]c1=O)OCC

Resp:
1: 20.6 µM (inactive); 2: > 100 µM (inactive); 3: 65.5 µM (inactive); 4: > 100 µM (inactive); 5: > 100 µM (inactive)
